Test system: TGF-β1-induced luciferase reporter activity, HaCaT (3TP-luc) stable cells
Assay: Cell-based p3TP-luciferase reporter assay
Conditions: Homo sapiens, HaCaT, read-out: IC50 for p3TP-luciferase
property-name: IC50 (nM)
Output spec: scalar in nM, unitless text.

### Prompt IC50 for Cc1cccc(-c2[nH]c(Cc3cccc(C(N)=O)c3)nc2-c2ccc3nccnc3c2)n1 [Compound 11e] ?
### Response 19.6

====

Tested on: Caco-2 cells
Assay: Caco-2 cell permeability assay
Assay type: in vitro ADME
Conditions: 100 µM, AP to BL, 2 h; mean ± SD of quadruplicates
The entries below come with measured Caco-2 permeability (%) values attached.
Output spec: scalar in %, unitless text.

Consider the worked cases shown below.
CC(C)c1cccc(-c2[nH]c(Cc3cccc(C(N)=O)c3)nc2-c2ccc3nccnc3c2)n1 [Compound 11g] : 34
CCCCc1cccc(-c2[nH]c(Cc3ccc(C(N)=O)cc3)nc2-c2ccc3nccnc3c2)n1 [Compound 11d] : 41

### Prompt Requested read-out Caco-2 permeability (%), target or system Caco-2 cells, entry CCCCc1cccc(-c2[nH]c(CCc3ccc(C(N)=O)cc3)nc2-c2ccc3nccnc3c2)n1 [Compound 16d]
### Response 24

### Prompt Also check Cc1cccc(-c2[nH]c(CCc3ccc(C(N)=O)cc3)nc2-c2ccc3nccnc3c2)n1 [Compound 16a]
### Response 45

### Prompt Also check Cc1cccc(-c2[nH]c(CCc3cccc(C(N)=O)c3)nc2-c2ccc3nccnc3c2)n1 [Compound 16e]
### Response 21

### Prompt Also check CC(C)c1cccc(-c2[nH]c(Cc3ccc(C(N)=O)cc3)nc2-c2ccc3nccnc3c2)n1 [Compound 11c]
### Response 30

====

Target: purified human ALK5 kinase domain (Homo sapiens)
Construct: using the purified human ALK5 kinase domain produced in Sf9 insect cells; host or cells: Sf9 insect cells
Assay: ALK5 kinase assay (33PanQinase, casein as substrate)
Format: biochemical
Settings: vs 11a, 11e, 16a, 16e respectively; kinase assay
property-name: fold less potent than the corresponding 6-methylpyridyl analogue

Consider the worked cases shown below.
CCc1cccc(-c2[nH]c(Cc3cccc(C(N)=O)c3)nc2-c2ccc3nccnc3c2)n1 [Compound 11f] : 2.1 fold
CC(C)c1cccc(-c2[nH]c(CCc3ccc(C(N)=O)cc3)nc2-c2ccc3nccnc3c2)n1 [Compound 16c] : 13–35 fold
CC(C)c1cccc(-c2[nH]c(CCc3cccc(C(N)=O)c3)nc2-c2ccc3nccnc3c2)n1 [Compound 16g] : 13–35 fold
CC(C)c1cccc(-c2[nH]c(Cc3ccc(C(N)=O)cc3)nc2-c2ccc3nccnc3c2)n1 [Compound 11c] : 13–35 fold
CCc1cccc(-c2[nH]c(CCc3cccc(C(N)=O)c3)nc2-c2ccc3nccnc3c2)n1 [Compound 16f] : 1.4 fold

### Prompt fold less potent than the corresponding 6-methylpyridyl analogue for CCc1cccc(-c2[nH]c(CCc3ccc(C(N)=O)cc3)nc2-c2ccc3nccnc3c2)n1 [Compound 16b] ?
### Response 1.4 fold

### Prompt Also check CCc1cccc(-c2[nH]c(Cc3ccc(C(N)=O)cc3)nc2-c2ccc3nccnc3c2)n1 [Compound 11b]
### Response 1.3 fold

### Prompt Also check CC(C)c1cccc(-c2[nH]c(Cc3cccc(C(N)=O)c3)nc2-c2ccc3nccnc3c2)n1 [Compound 11g]
### Response 13–35 fold

====

Molecular target: purified human ALK5 kinase domain (Homo sapiens, UniProt P36897)
Construct: using the purified human ALK5 kinase domain produced in Sf9 insect cells; host or cells: Sf9 insect cells
Assay: ALK5 kinase assay (33PanQinase, casein as substrate)
Type: biochemical
Conditions: casein substrate, 1 μM ATP; singlicate (11e: mean of triplicates)
The entries below come with measured pIC50 values attached.
Keep it numeric: pIC50 is minus log10 of the concentration in mol/L.

Consider the worked cases shown below.
CC(C)c1cccc(-c2[nH]c(CCc3cccc(C(N)=O)c3)nc2-c2ccc3nccnc3c2)n1 [Compound 16g] : 6.23
CCCCc1cccc(-c2[nH]c(Cc3ccc(C(N)=O)cc3)nc2-c2ccc3nccnc3c2)n1 [Compound 11d] : 5.57
CC(C)c1cccc(-c2[nH]c(Cc3cccc(C(N)=O)c3)nc2-c2ccc3nccnc3c2)n1 [Compound 11g] : 5.90
CC(C)c1cccc(-c2[nH]c(Cc3ccc(C(N)=O)cc3)nc2-c2ccc3nccnc3c2)n1 [Compound 11c] : 5.66

### Prompt pIC50 for CCc1cccc(-c2[nH]c(CCc3ccc(C(N)=O)cc3)nc2-c2ccc3nccnc3c2)n1 [Compound 16b] ?
### Response 7.39

### Prompt Also check Cc1cccc(-c2[nH]c(Cc3ccc(C(N)=O)cc3)nc2-c2ccc3c(c2)OCO3)n1
### Response 6.65

### Prompt Also check Cc1cccc(-c2[nH]c(Cc3cccc(C(N)=O)c3)nc2-c2ccc3nccnc3c2)n1 [Compound 11e]
### Response 7.44

### Prompt Also check Cc1cccc(-c2[nH]c(CCc3ccc(C(N)=O)cc3)nc2-c2ccc3nccnc3c2)n1 [Compound 16a]
### Response 7.52

====

Biological target: p38α (Homo sapiens, UniProt Q16539)
Sequence (Q16539 whole entry): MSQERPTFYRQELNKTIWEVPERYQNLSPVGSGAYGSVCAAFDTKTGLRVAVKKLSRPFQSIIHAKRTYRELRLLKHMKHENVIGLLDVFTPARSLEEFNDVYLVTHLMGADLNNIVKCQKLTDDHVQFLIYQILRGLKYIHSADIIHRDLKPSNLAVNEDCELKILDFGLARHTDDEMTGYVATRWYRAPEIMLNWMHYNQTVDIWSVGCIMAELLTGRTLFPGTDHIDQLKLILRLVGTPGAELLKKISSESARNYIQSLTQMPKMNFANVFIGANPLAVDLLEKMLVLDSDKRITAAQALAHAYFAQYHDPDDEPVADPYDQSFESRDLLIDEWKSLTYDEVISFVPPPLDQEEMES
The entries below come with measured pIC50 values attached.
Keep it numeric: pIC50 is minus log10 of the concentration in mol/L.

Cc1cccc(-c2nn3c(c2-c2ccnc4ccc(C(N)=O)cc24)CCC3)n1 [Galunisertib (1), reference compound] : 6.49

Next molecule, pIC50 to be filled in.
### Prompt pIC50 for Cc1cccc(-c2[nH]c(Cc3cccc(C(N)=O)c3)nc2-c2ccc3nccnc3c2)n1 [Compound 11e] ?
### Response 6.54

====

Molecular target: purified human ALK5 kinase domain (Homo sapiens, UniProt P36897)
Construct: using the purified human ALK5 kinase domain produced in Sf9 insect cells
Sequence (P36897 205-495 limits assumed): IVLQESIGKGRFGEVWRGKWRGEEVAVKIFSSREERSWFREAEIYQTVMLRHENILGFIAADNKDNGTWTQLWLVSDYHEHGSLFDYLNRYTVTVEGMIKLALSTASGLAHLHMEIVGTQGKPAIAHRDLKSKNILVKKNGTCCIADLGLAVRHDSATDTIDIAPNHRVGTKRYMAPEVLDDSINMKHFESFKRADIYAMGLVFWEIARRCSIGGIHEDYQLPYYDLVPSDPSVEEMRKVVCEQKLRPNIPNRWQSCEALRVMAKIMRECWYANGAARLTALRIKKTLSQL
Assay: ALK5 kinase assay (33PanQinase, casein as substrate)
Conditions: casein substrate, 1 μM ATP; singlicate (11e: mean of triplicates)
property-name: pIC50
Keep it numeric: pIC50 is minus log10 of the concentration in mol/L.

Cc1cccc(-c2[nH]c(CCc3ccc(C(N)=O)cc3)nc2-c2ccc3c(c2)OCO3)n1 : 7.03
CCc1cccc(-c2[nH]c(CCc3cccc(C(N)=O)c3)nc2-c2ccc3nccnc3c2)n1 [Compound 16f] : 7.18

### Prompt pIC50 for CCc1cccc(-c2[nH]c(Cc3cccc(C(N)=O)c3)nc2-c2ccc3nccnc3c2)n1 [Compound 11f] ?
### Response 7.12

### Prompt Also check Cc1cccc(-c2[nH]c(Cc3ccc(C(N)=O)cc3)nc2-c2ccc3nccnc3c2)n1 [Compound 11a]
### Response 7.06

### Prompt Also check CCc1cccc(-c2[nH]c(Cc3ccc(C(N)=O)cc3)nc2-c2ccc3nccnc3c2)n1 [Compound 11b]
### Response 6.95

====

Test system: Caco-2 cells
Assay: Caco-2 cell permeability assay
Format: in vitro ADME
Conditions: 100 µM, AP to BL, 2 h; mean ± SD of quadruplicates
The entries below come with measured Caco-2 permeability (%) values attached.
Output spec: scalar in %, unitless text.

CCCCc1cccc(-c2[nH]c(CCc3cccc(C(N)=O)c3)nc2-c2ccc3nccnc3c2)n1 [Compound 16h] : 0

### Prompt Caco-2 permeability (%) for CCc1cccc(-c2[nH]c(Cc3ccc(C(N)=O)cc3)nc2-c2ccc3nccnc3c2)n1 [Compound 11b] ?
### Response 26

====

Tested on: Caco-2 cells
Test: Caco-2 cell permeability assay
Assay type: in vitro ADME
Details: 100 µM, AP to BL, 2 h; mean ± SD of quadruplicates
Marks after values point to notes of the source that are not given here.
property-name: Caco-2 permeability (%)

### Prompt Caco-2 permeability (%) for Cc1cccc(-c2[nH]c(Cc3ccc(C(N)=O)cc3)nc2-c2ccc3c(c2)OCO3)n1 ?
### Response 35 ± 0.7^f %

### Prompt Also check CCc1cccc(-c2[nH]c(Cc3cccc(C(N)=O)c3)nc2-c2ccc3nccnc3c2)n1 [Compound 11f]
### Response 38 ± 13.8%

### Prompt Also check Cc1cccc(-c2[nH]c(CCc3ccc(C(N)=O)cc3)nc2-c2ccc3c(c2)OCO3)n1
### Response 23 ± 3.0%

### Prompt Also check Cc1cccc(-c2[nH]c(CCCc3ccc(C(N)=O)cc3)nc2-c2ccc3c(c2)OCO3)n1
### Response 32 ± 1.1%

### Prompt Also check CC(C)c1cccc(-c2[nH]c(CCc3cccc(C(N)=O)c3)nc2-c2ccc3nccnc3c2)n1 [Compound 16g]
### Response 0%

### Prompt Also check CC(C)c1cccc(-c2[nH]c(CCc3ccc(C(N)=O)cc3)nc2-c2ccc3nccnc3c2)n1 [Compound 16c]
### Response 23 ± 3.1%

### Prompt Also check Cc1cccc(-c2[nH]c(Cc3ccc(C(N)=O)cc3)nc2-c2ccc3nccnc3c2)n1 [Compound 11a]
### Response 25 ± 1.3%

### Prompt Also check CCc1cccc(-c2[nH]c(CCc3ccc(C(N)=O)cc3)nc2-c2ccc3nccnc3c2)n1 [Compound 16b]
### Response 25 ± 3.7%

Origin of measurements: paper PMC7144182
